Measurement Target: Carnitine O-palmitoyltransferase 1, liver isoform (Homo sapiens, UniProt P50416)
Sequence (P50416 whole entry, canonical isoform): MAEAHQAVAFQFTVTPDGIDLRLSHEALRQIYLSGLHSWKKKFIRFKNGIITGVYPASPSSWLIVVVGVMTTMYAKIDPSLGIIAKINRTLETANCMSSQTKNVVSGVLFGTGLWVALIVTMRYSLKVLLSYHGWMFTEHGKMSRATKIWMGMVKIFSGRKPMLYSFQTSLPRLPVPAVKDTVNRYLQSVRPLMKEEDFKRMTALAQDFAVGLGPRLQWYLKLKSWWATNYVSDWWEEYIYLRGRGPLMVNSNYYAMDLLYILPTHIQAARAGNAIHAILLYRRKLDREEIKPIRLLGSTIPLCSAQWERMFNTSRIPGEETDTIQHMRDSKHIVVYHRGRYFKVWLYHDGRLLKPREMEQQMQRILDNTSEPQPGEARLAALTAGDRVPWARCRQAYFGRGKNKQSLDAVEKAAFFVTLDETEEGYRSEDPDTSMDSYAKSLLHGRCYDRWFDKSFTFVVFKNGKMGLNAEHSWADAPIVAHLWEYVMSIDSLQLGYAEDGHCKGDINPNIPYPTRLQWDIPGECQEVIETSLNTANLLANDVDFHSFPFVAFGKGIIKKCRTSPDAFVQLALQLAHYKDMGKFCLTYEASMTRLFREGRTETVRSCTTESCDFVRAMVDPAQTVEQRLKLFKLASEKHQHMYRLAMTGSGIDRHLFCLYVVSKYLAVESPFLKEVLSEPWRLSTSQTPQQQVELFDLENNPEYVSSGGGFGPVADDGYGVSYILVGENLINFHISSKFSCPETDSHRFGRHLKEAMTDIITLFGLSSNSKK
Procedure Details: SUPPLEMENTARY: Inhibition of Carnitine palmitoyltransferase 1, liver isoform
Experimental Readout: IC50 (nM)

Previously resolved entries follow.
{"columns": ["Compound", "Experimental Readout", "Unit Symbol", "Obs Value"],
 "data": [
  ["COc1ccc(Cl)cc1S(=O)(=O)c1nn(C)c2ccc(C(=O)Nc3ccc(CC(=O)O)cc3)cc12", "IC50", "nM", 166],
  ["O=C(COc1ccccc1)N1CCCC[C@@H]1c1noc(-c2cnnc3ccccc23)n1", "IC50", "nM", 49.1],
  ["COc1ccc(Cl)cc1S(=O)(=O)N1COc2c(C)cc(C(=O)Nc3ccc(C(=O)O)cc3)cc21", "IC50", "nM", 78.2],
  ["O=C1COc2ccc(-c3n[nH]c([C@H]4CCCCN4C(=O)COc4ccccc4)n3)cc2N1", "IC50", "nM", 121],
  ["O=C(COc1ccccc1)N1CCCC[C@@H]1c1noc(-c2ccc3ncsc3c2)n1", "IC50", "nM", 177],
  ["CCn1cc(S(=O)(=O)c2cc(Cl)ccc2OC)c2cc(C(=O)Nc3ccc(C(=O)O)cc3)ccc21", "IC50", "nM", 74.7]
]}

(I) COc1ccc(Cl)cc1S(=O)(=O)N1CCOc2c(F)cc(C(=O)Nc3ccc(C(=O)O)cc3)cc21
(II) O=C([O-])c1cccc(-c2csc([C@H]3CCCCN3C(=O)COc3ccccc3)n2)c1.[Na+]
(III) CCn1cc(Sc2cc(Cl)ccc2OC)c2cc(C(=O)Nc3ccc(C(=O)O)cc3)ccc21
(IV) O=C(COc1ccccc1)N1CCCCC1c1cc(=O)n(-c2ccc(F)cc2)[nH]1 (stereo not drawn)
Request: Rank descending by IC50. Please list each label once, in the requested order.
Result: IV, III, I, II
